target: OATP1B3 (Homo sapiens)
Sequence (Q9NPD5 whole entry): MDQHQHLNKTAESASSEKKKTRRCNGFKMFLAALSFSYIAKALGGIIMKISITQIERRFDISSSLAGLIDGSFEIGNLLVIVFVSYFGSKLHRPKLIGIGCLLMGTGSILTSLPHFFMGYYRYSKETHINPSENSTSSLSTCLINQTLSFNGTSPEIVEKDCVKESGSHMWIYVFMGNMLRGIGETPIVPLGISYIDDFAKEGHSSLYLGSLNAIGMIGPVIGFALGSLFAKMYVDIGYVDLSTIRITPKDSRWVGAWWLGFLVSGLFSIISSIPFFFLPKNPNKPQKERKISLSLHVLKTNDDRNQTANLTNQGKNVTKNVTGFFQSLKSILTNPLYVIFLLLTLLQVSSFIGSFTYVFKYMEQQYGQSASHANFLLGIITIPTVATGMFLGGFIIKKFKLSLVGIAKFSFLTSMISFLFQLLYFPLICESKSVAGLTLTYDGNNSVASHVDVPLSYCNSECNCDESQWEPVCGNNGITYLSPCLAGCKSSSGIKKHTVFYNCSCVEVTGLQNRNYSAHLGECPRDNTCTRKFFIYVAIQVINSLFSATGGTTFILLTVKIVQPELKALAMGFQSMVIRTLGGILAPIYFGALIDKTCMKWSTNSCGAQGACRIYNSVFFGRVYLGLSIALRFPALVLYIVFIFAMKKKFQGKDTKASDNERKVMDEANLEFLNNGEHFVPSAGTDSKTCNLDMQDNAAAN
condition_details: read-out: Apparent Km; net cellular uptake, CHO/OATP1B3-overexpressing cells, 3 min, mean ± SD
readout_name: Km (µM)
Give bare numbers, in µM.

molecule | result_units | Km
C[C@H](NC(C)(C)C)[C@@H](O)c1cccc(Cl)c1 [TB, Threohydrobupropion] | µM | 21
CC(NC(C)(C)C)C(O)c1cccc(Cl)c1 (stereo not drawn) [EB, Erythrohydrobupropion] | µM | 14

Turning now to a further record.
Km for C[C@H]1NC(C)(C)CO[C@]1(O)c1cccc(Cl)c1 [OHB, Hydroxybupropion] ? 76
